Here, each record is paired with measured Relative luminescence activity integrated (1 min) data.
Target: codon-optimized nanoKAZ domain protein (Oplophorus gracilirostris, UniProt Q9GV45, A31E/A60N/A81I/F95D/I117V/K70R/L54V/L99Q/M102K/N193R/P142E/Q151K/Q38R/Q45L/V71I/Y165I)
Construct: expressed in transfected cells; host or cells: CHO-K1, HeLa or COS-1 cells transfected with pcDNA3-nanoKAZ or pcDNA3-GLsp-nanoKAZ
Sequence (Q9GV45 28-196 with tags or gaps with the stated changes limits assumed): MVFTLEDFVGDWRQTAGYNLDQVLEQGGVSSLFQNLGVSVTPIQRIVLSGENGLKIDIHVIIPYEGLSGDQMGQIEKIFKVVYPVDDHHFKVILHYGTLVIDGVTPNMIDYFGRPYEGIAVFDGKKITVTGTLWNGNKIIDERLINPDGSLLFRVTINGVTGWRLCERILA
Assay: Substrate specificity and luminescence pattern of nanoKAZ secreted into culture medium
Assay type: biochemical
Conditions: culture medium with secreted nanoKAZ as enzyme, coelenterazine = 1.0
METRIC NAME: Relative luminescence activity integrated (1 min)

>>> result("COc1ccc(Cc2nc3c(Cc4ccccc4)[nH]c(-c4ccc(O)cc4)cn-3c2=O)cc1")
6.3
>>> result("Cc1cccc(Cc2nc3c(Cc4ccccc4)[nH]c(-c4ccc(O)cc4)cn-3c2=O)c1")
7.9
>>> result("COc1cccc(Cc2nc3c(Cc4ccccc4)[nH]c(-c4ccc(O)cc4)cn-3c2=O)c1")
8.2
>>> result("Cc1ccc(Cc2nc3c(Cc4ccccc4)[nH]c(-c4ccc(O)cc4)cn-3c2=O)cc1")
3.0
>>> result("O=c1c(Cc2cccc(O)c2)nc2c(Cc3ccccc3)[nH]c(-c3ccc(O)cc3)cn1-2")
1.4
>>> result("O=c1c(Cc2ccc(C(F)(F)F)cc2)nc2c(Cc3ccccc3)[nH]c(-c3ccc(O)cc3)cn1-2")
2.4
>>> result("Oc1ccc(-c2cn3c(O)c(Cc4ccccc4)nc3c(Cc3ccccc3)n2)cc1")
11.1
>>> result("O=c1c(Cc2ccco2)nc2c(Cc3ccccc3)[nH]c(-c3ccccc3)cn1-2")
5.3
>>> result("Oc1ccc(Cc2nc3c(Cc4ccccc4)nc(-c4ccc(O)cc4)cn3c2O)cc1")
1.0

---

Target: purified nanoKAZ (Oplophorus gracilirostris, UniProt Q9GV45, A31E/A60N/A81I/F95D/I117V/K70R/L54V/L99Q/M102K/N193R/P142E/Q151K/Q38R/Q45L/V71I/Y165I)
Construct: histidine tag (6 His) (N, cleaved yes); ZZ domain (N, cleaved yes); made in house; host or cells: Escherichia coli BL21
Sequence (Q9GV45 other isoform, or with tags, fused parts or gaps with the stated changes): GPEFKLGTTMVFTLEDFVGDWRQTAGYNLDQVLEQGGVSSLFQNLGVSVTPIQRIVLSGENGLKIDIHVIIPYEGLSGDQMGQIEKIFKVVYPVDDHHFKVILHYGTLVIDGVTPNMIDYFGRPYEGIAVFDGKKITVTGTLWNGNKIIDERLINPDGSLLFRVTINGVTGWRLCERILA
Assay: Emission spectra by purified nanoKAZ using coelenterazine analogues
Type: biochemical
Conditions: purified nanoKAZ 3 μg, substrate 5 μg, 22-25° C.
METRIC NAME: Half bandwidth FWHM (nm)

>>> result("COc1cccc(Cc2nc3c(Cc4ccccc4)[nH]c(-c4ccc(O)cc4)cn-3c2=O)c1")
71
>>> result("Oc1ccc(Cc2nc3c(Cc4ccccc4)nc(-c4ccc(O)cc4)cn3c2O)cc1")
73
>>> result("Oc1ccc(-c2cn3c(O)c(Cc4ccccc4)nc3c(Cc3ccccc3)n2)cc1")
71
>>> result("COc1ccc(Cc2nc3c(Cc4ccccc4)[nH]c(-c4ccc(O)cc4)cn-3c2=O)cc1")
73
>>> result("O=c1c(Cc2cccc(O)c2)nc2c(Cc3ccccc3)[nH]c(-c3ccc(O)cc3)cn1-2")
75
>>> result("O=c1c(Cc2ccco2)nc2c(Cc3ccccc3)[nH]c(-c3ccccc3)cn1-2")
73
>>> result("Cc1cccc(Cc2nc3c(Cc4ccccc4)[nH]c(-c4ccc(O)cc4)cn-3c2=O)c1")
73
>>> result("O=c1c(Cc2ccc(C(F)(F)F)cc2)nc2c(Cc3ccccc3)[nH]c(-c3ccc(O)cc3)cn1-2")
71
>>> result("Cc1ccc(Cc2nc3c(Cc4ccccc4)[nH]c(-c4ccc(O)cc4)cn-3c2=O)cc1")
75
